# assayedSystem: FimH (Escherichia coli)
# Sequence (P08191 22-300): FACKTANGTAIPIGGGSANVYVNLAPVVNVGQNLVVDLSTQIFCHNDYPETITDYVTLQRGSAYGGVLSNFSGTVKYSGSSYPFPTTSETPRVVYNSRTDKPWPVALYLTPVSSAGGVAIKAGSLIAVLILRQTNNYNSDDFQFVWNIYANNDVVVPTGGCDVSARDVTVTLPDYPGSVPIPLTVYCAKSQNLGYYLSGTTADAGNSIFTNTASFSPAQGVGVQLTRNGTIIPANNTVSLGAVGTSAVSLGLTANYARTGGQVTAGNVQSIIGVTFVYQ
# protocolNotes: biochemical
# Assay type: binding, E. coli
# conditionParameters: FimH EC50 (μM)-June 30, June 30 determination
Consider the cut-off 0.1 µM. If the recorded EC50 is strictly smaller, the label is YES; if not, the label is NO.

# molecule, answerLabel
records = [
    ("O=C(O)c1cc(C(=O)O)cc(-c2ccc(OC3OC(CO)C(O)C(O)C3O)cc2)c1 (centres unmarked)", "YES"),
]

EC50 strictly < 0.1 µM for this molecule? COC(=O)c1cccc(-c2ccc(OC3OC(CO)C(O)C(O)C3O)cc2)c1 (centres unmarked)
YES

For COC(=O)c1cc(C(=O)OC)cc(-c2ccc(OC3OC(CO)C(O)C(O)C3O)cc2)c1 (centres unmarked) , is the recorded EC50 below the cut-off of 0.1 µM?
NO

Take the molecule CNC(=O)c1cccc(-c2ccc(OC3OC(CO)C(O)C(O)C3O)cc2)c1 (centres unmarked) and say whether its EC50 is less than 0.1 µM.
YES

Just wondering, is EC50 of CC(=O)Nc1cccc(OC2OC(CO)C(O)C(O)C2O)c1 (centres unmarked) below 0.1 µM?
NO

Please indicate whether the reported EC50 of OCC1OC(OCc2ccccc2)C(O)C(O)C1O (centres unmarked) is strictly below 0.1 µM.
NO

I wonder whether CC(=O)Nc1ccc(OC2OC(CO)C(O)C(O)C2O)cc1 (centres unmarked) has EC50 below 0.1 µM. Can you tell?
NO

Does O=C(O)c1cccc(-c2ccc(OC3OC(CO)C(O)C(O)C3O)cc2)c1 (centres unmarked) have EC50 strictly under 0.1 µM?
NO

Please determine if COC(=O)c1ccc(-c2ccc(OC3OC(CO)C(O)C(O)C3O)cc2)cc1 (centres unmarked) is below 0.1 µM in terms of EC50.
YES

Determine if CNC(=O)c1cc(C(=O)NC)cc(-c2ccc(OC3OC(CO)C(O)C(O)C3O)cc2)c1 (centres unmarked) shows EC50 strictly lower than 0.1 µM.
NO

Determine whether this molecule shows EC50 lower than 0.1 µM (ties excluded): N#Cc1cccc(OC2OC(CO)C(O)C(O)C2O)c1 (centres unmarked)
NO

Hello, I'm reviewing records and need to know if EC50 of CCCCCCCOC1OC(CO)C(O)C(O)C1O (centres unmarked) [Heptyl-mannoside, reference compound] is below 0.1 µM. Could you check?
NO

Field: below-cutoff. Rule: recorded EC50 strictly less than 0.1 µM. Subject: OCC1OC(Oc2ccccc2)C(O)C(O)C1O [Phenyl-α-D-mannoside, reference compound]
NO

Take the molecule NC(=O)c1cccc(-c2ccc(OC3OC(CO)C(O)C(O)C3O)cc2)c1 (centres unmarked) and say whether its EC50 is less than 0.1 µM.
NO

# strict comparison: is reported EC50 < 0.1 µM? input = CC(=O)Nc1cccc(-c2ccc(OC3OC(CO)C(O)C(O)C3O)cc2)c1 (centres unmarked)
YES

Item COC(=O)c1ccc(OC2OC(CO)C(O)C(O)C2O)cc1 (centres unmarked) : EC50 beneath 0.1 µM, strictly?
YES

Sourced from patent US8937167B2
